Consider the following variants; for each one, report its folding stability dG.
B1: EEHEE_rd3_0130 (parent)
chain: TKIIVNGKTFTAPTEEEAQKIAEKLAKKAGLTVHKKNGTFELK

# Variants of: B1
# assayNotes: folding stability dG (cDNA display proteolysis); higher = more stable
# testContext: PBS, room temperature
One number for each entry, in kJ/mol.

# batch: return folding stability dG for each of the 7 variants below
1. K8R
2. E41H
3. E15A
4. G7Q
5. T9W
6. K2F
7. F40A

1. 4.18
2. 2.34
3. 3.03
4. 0.105
5. 4.05
6. 2.36
7. -1.42
